As shown below, each of these compounds has a reported cytotoxicity at 70.5 h value.
- testSummary: Human HepG2 cell viability assay in 384 well format
- Type: toxicity, cell-based
- Set-up: dose 125 nL, time 70.5 hour; concentration not given beside the values
- recordedConditions: HepG2 cells, read-out: Inhibition

| compound | cytotoxicity at 70.5 h / % |
| --- | --- |
| CC(C)C(=O)N1CCN(Cc2csc(-c3ccccn3)n2)CC1 | -7.7 |
| CC(C(=O)NCc1ccc(N2CCCC2)nc1)S(C)(=O)=O (configuration not stated) | 15.7 |
| Cc1ccc(CN[C@@H]2COC[C@H]2Cc2cc(C)no2)cc1 | -7.63 |
| CCOCC(O)CN1CCN(C(=O)c2ccsc2)CC1 (configuration not stated) | 17.1 |
| CC(=O)NCCCn1ncc2c(C)cccc21 | -10.8 |
| CS(=O)(=O)NCc1cncc2c1CCN(C(=O)c1ccccn1)C2 | -12.5 |
| CC(C)(C)C(O)CN1CCN(C(=O)c2cccc3[nH]ncc23)CC1 (configuration not stated) | -3.16 |
| Cc1ccc(CN2CCC3(CC2)CC(NC(=O)c2ccccn2)CO3)o1 (configuration not stated) | -2.22 |
| CC(=O)N1C[C@H]2CNC[C@@]2(C(=O)NCCCOc2cccnc2)C1 | 20 |
| CO[C@H]1COCCN(C(=O)c2ccc(C#N)cc2)C1 | 9.9 |
| Cc1nc2ccccc2nc1CN1CCCC1Cn1cccn1 (configuration not stated) | 20.6 |
| CC(C)c1cc(Br)ccc1NC(=O)NC(C)(CO)CO | -5 |
